tested on: NIH3T3; assay: Inhibitory activity against 3T3 cell line; assay type: functional, cell-based, Mus musculus
property: pIC50
FYI, pIC50 means -log10 of a concentration in mol per litre.

CISPLATIN has a reported pIC50 of 4.46

* * *

tested on: PAM; assay: Inhibitory activity against PAM cell line; type: functional, cell-based, Mus musculus; details: Mus musculus, PAM
property: IC50 (µM)
Express the result in µM but write the number alone.

Record COc1cccc2c1C(=O)c1c(O)c3c(c(O)c1C2=O)C[C@@](O)(C(=O)CO)C[C@@H]3O[C@H]1C[C@H](N)[C@H](O)[C@H](C)O1 . Reported IC50: 150

compound COc1cc([C@@H]2c3cc4c(cc3[C@@H](O[C@@H]3O[C@@H]5CO[C@@H](C)O[C@H]5[C@H](O)[C@H]3O)[C@H]3COC(=O)[C@H]23)OCO4)cc(OC)c1O [ETOPOSIDE] , IC50 observed: 180
